# reported koff; entries follow
Target under test: T1, hPD-1 mIg fusion protein (human; mouse, UniProt Q15116 25-170)
T1 construct: extracellular domain; not shown: CH2-CH3 domain of mouse IgG2a heavy chain (plasmid pmIgG)
T1 sequence (Q15116 25-170): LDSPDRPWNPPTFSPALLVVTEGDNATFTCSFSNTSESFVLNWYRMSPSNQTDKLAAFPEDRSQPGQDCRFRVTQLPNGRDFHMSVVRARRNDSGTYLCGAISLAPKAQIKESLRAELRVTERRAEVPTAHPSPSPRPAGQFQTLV
Assay overview: SPR Biacore T100, hPD-1mIg immobilised by amine coupling, antibody as analyte
Reply numerically in s⁻¹, unit not repeated.

[[record]]
binder = "Variant 6 (antibody, V domains shown, Humanized; VH variant b, VK variant c; Constant regions not spelled out; chimeric parent has human IgG4-S228P and human kappa; also called mutant combination 6) VH: EVQLVESGGGLVQPGGSLRLSCAASGFTFSSYTMSWVRQAPGKGLEWVSYISHGGGDTYYPDSVKGRFTISRDNSKNTLYLQMNSLRAEDTAVYYCARHSGYERGYYYVMDYWGQGTLVTVSS VL: DIQLTQSPDSLSVSLGERATINCKASESVDYYGFSFLNWFQQKPGQPPKLLIYAASNRQSGVPDRFSGSGSGTDFTLTISSLQAEDVAVYFCQQSKEVPWTFGQGTKLEIKR"
measurement_type = "koff"
recorded_measurement = "2.23e-05"

[[record]]
binder = "Variant 2 (antibody, V domains shown, Humanized; VH variant a, VK variant b; Constant regions not spelled out; chimeric parent has human IgG4-S228P and human kappa; also called mutant combination 2) VH: EVQLVESGGGLVQPGGSLRLSCAASGFTFSSYTMSWVRQAPGKGLEWVSYISHGGGDTYYADSVKGRFTISRDNSKNTLYLQMNSLRAEDTAVYYCARHSGYERGYYYVMDYWGQGTLVTVSS VL: DIVMTQSPDSLAVSLGERATINCKASESVDYYGFSFLNWFQQKPGQPPKLLIYAASNRESGVPDRFSGSGSGTDFTLTISSLQAEDVAVYYCQQSKEVPWTFGQGTKLEIKR"
measurement_type = "koff"
recorded_measurement = "7.64e-05"

[[record]]
binder = "Variant 8 (antibody, V domains shown, Humanized; VH variant c, VK variant b; Constant regions not spelled out; also called mutant combination 8) VH: EVKLLESGGGLVQPGGSLRLSCAASGFTFSSYTMSWVRQAPGKGLEWVSYISHGGGDTYYPDSVKGRFTISRDNSKNTLYLQMNSLRAEDTAVYYCARHSGYERGYYYVMDYWGKGTTVTVSS VL: DIVMTQSPDSLAVSLGERATINCKASESVDYYGFSFLNWFQQKPGQPPKLLIYAASNRESGVPDRFSGSGSGTDFTLTISSLQAEDVAVYYCQQSKEVPWTFGQGTKLEIK"
measurement_type = "koff"
recorded_measurement = "7.95e-05"


Next item in the queue.
Prompt: For the binder Variant 5 (antibody, V domains shown, Humanized; VH variant b, VK variant b; Constant regions not spelled out; chimeric parent has human IgG4-S228P and human kappa; also called mutant combination 5) VH: EVQLVESGGGLVQPGGSLRLSCAASGFTFSSYTMSWVRQAPGKGLEWVSYISHGGGDTYYPDSVKGRFTISRDNSKNTLYLQMNSLRAEDTAVYYCARHSGYERGYYYVMDYWGQGTLVTVSS VL: DIVMTQSPDSLAVSLGERATINCKASESVDYYGFSFLNWFQQKPGQPPKLLIYAASNRESGVPDRFSGSGSGTDFTLTISSLQAEDVAVYYCQQSKEVPWTFGQGTKLEIKR , give its measured koff value.
Response: 6.94e-05
